PROTOCOL_SUMMARY: In Vitro Microsome Stability Assay (human)
Type: in vitro ADME
CONDITIONS: human, 30 min, NADPH
Procedure: Potassium phosphate (423 μL of a 0.1 M solution) was added to 8-strip deep well tubes followed by human, mouse, rat, or monkey microsomes (25 μL of a 20 mg/mL solution). The tubes were then placed on ice and the test article (2 μL of a 0.25 mM solution in DMSO) was added. […] Liver microsome stability is assessed by the % remaining of compound at 30 min which is calculated using the following equation: [(AUCanalyteT=30/AUCIS)/(AUCanalyteT=0/AUCIS)]*100 […]
Quick reference for Liver Microsome Stability-% Left after 30 min w/ NADPH (%) Human among some molecules
Express it in %; write the number only.

Recorded Liver Microsome Stability-% Left after 30 min w/ NADPH (%) Human, per entry:
Inquiry: Tell me the measured Liver Microsome Stability-% Left after 30 min w/ NADPH (%) Human of C=C1CN(S(=O)(=O)c2c(F)cc(N(C)C)cc2F)CCCN(CC2CCCCC2)CCCN(S(=O)(=O)N2CCC(c3ccccc3)CC2)C1 , please.
Reply text: 41.3

Inquiry: Tell me the measured Liver Microsome Stability-% Left after 30 min w/ NADPH (%) Human of COc1cccc(S(=O)(=O)N2CCCN(CC3CCCCC3)CCCN(S(=O)(=O)N3CCCCC3)CC3(CC3)C2)c1 , please.
Reply text: 0.06

Inquiry: Tell me the measured Liver Microsome Stability-% Left after 30 min w/ NADPH (%) Human of C[C@@H]1CN(S(=O)(=O)c2ccc(N(C)C)cc2)CCCN(CC2CCCCC2)CCCN(S(=O)(=O)N2CCC(c3ccccc3)CC2)C1 , please.
Reply text: 53.1

Inquiry: Tell me the measured Liver Microsome Stability-% Left after 30 min w/ NADPH (%) Human of C=C1CN(S(=O)(=O)c2ccc(N(C)C)cc2)CCCN(CC2CCCCC2)CCCN(S(=O)(=O)N2CCN(c3ccccc3Cl)CC2)C1 , please.
Reply text: 39.3

Inquiry: Tell me the measured Liver Microsome Stability-% Left after 30 min w/ NADPH (%) Human of C=C1CN(S(=O)(=O)c2ccc(C)cc2)CCCN(Cc2ccccc2)CCCN(S(=O)(=O)c2ccc(C)cc2)C1 , please.
Reply text: 0.18

New cases:
Inquiry: Tell me the measured Liver Microsome Stability-% Left after 30 min w/ NADPH (%) Human of C=C1CN(S(=O)(=O)c2ccc(N(C)C)cc2)CCCN(CC2CCCCC2)CCCN(S(=O)(=O)N2CCc3cc(Br)ccc3C2)C1 , please.
Reply text: 46.7

Inquiry: Tell me the measured Liver Microsome Stability-% Left after 30 min w/ NADPH (%) Human of C=C1CN(S(=O)(=O)CC)CCCN(CC2CCCCC2)CCCN(S(=O)(=O)c2ccc(C)cc2)C1 , please.
Reply text: 0.53

Inquiry: Tell me the measured Liver Microsome Stability-% Left after 30 min w/ NADPH (%) Human of O=C(c1ccc(Cl)cc1)N1CCCN(S(=O)(=O)N2CCCCC2)CC2(CC2)CN(S(=O)(=O)N2CCCCC2)CCC1 , please.
Reply text: 0.03

Inquiry: Tell me the measured Liver Microsome Stability-% Left after 30 min w/ NADPH (%) Human of C=C1CN(S(=O)(=O)c2ccc(N(C)C)cc2)CCCN(CC2CCCCC2)CCCN(S(=O)(=O)N2CCC(c3ccc(Cl)cc3)CC2)C1 , please.
Reply text: 62.5

Inquiry: Tell me the measured Liver Microsome Stability-% Left after 30 min w/ NADPH (%) Human of C=C1CN(S(=O)(=O)c2ccc(N(C)C)cc2)CCCN(CC2CCCCC2)CCCN(S(=O)(=O)N2CCC[C@@H](c3ccccc3)C2)C1 , please.
Reply text: 15.4

Inquiry: Tell me the measured Liver Microsome Stability-% Left after 30 min w/ NADPH (%) Human of C[C@H]1CN(S(=O)(=O)c2ccc(N(C)C)cc2)CCCN(CC2CCCCC2)CCCN(S(=O)(=O)N2CCc3cc(Cl)ccc3C2)C1 , please.
Reply text: 39.7

Entry source: patent US11578055B2
